System: 362531-283-R-J2-PDC complex spheroid viability
Test: Anticancer human tumor 362531-283-R-J2-PDC patient-derived colon adenocarcinoma cell line growth inhibition [RAS]
Conditions: curve of first compound; second compound 0.0949 µM
quantity-kind: pIC50
Recall that pIC50 is obtained by taking minus log10 of the concentration measured in molar.

# molecule, study-target, pIC50
data = [
    ("NC1c2ccccc2OC12CCN(c1cnc3c(N4CCCc5ncccc54)n[nH]c3n1)CC2 (stereo not drawn) + CCn1c(-c2cccnc2C(C)OC)c2c3cc(ccc31)N1CCOC(CC(NC(=O)C(C(C)C)N(C)C(=O)C3(F)CCN(C(=O)C#CC(C)(C)N(C)C)CC3)C(=O)N3CCCC(N3)C(=O)OCC(C)(C)C2)C1", "362531-283-R-J2-PDC complex spheroid viability", 5.23),
    ("NC1c2ccccc2OC12CCN(c1cnc3c(N4CCCc5ncccc54)n[nH]c3n1)CC2 (stereo not drawn) + CCn1c(-c2cc(N3CCN(C)CC3)cnc2C(C)OC)c2c3cc(ccc31)-c1csc(n1)CC(NC(=O)C1CC1C)C(=O)N1CCCC(N1)C(=O)OCC(C)(C)C2", "362531-283-R-J2-PDC complex spheroid viability", 7.40),
    ("CC(C)n1nc(-c2ccc3oc(N)nc3c2)c2c(N)ncnc21 + CCn1c(-c2cc(N3CCN(C)CC3)cnc2C(C)OC)c2c3cc(ccc31)-c1csc(n1)CC(NC(=O)C1CC1C)C(=O)N1CCCC(N1)C(=O)OCC(C)(C)C2", "362531-283-R-J2-PDC complex spheroid viability", 7.73),
    ("CC(=O)OC12COC1CC(O)C1(C)C(=O)C(O)C3=C(C)C(OC(=O)C(O)C(NC(=O)OC(C)(C)C)c4ccccc4)CC(O)(C(OC(=O)c4ccccc4)C21)C3(C)C (stereo not drawn) + CCn1c(-c2cc(N3CCN(C)CC3)cnc2C(C)OC)c2c3cc(ccc31)-c1csc(n1)CC(NC(=O)C1CC1C)C(=O)N1CCCC(N1)C(=O)OCC(C)(C)C2", "362531-283-R-J2-PDC complex spheroid viability", 6.86),
]

Please find the next molecule below.
In plain terms, O=C(c1ccc(F)c(F)c1Nc1ccc(I)cc1F)N1CC(O)([C@@H]2CCCCN2)C1 + CCn1c(-c2cc(N3CCN(C)CC3)cnc2C(C)OC)c2c3cc(ccc31)-c1csc(n1)CC(NC(=O)C1CC1C)C(=O)N1CCCC(N1)C(=O)OCC(C)(C)C2 has a documented pIC50 of 7.14

----------
Tested on: 362531-283-R-J2-PDC complex spheroid viability
Assay: Anticancer human tumor 362531-283-R-J2-PDC cell line growth inhibition [RAS];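 further: spheroids exposed to the agents for 7 days before readout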;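 on viability, T/C: luminescence viability as percent of DMSO vehicle control wells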
Settings: second compound 0.0949 µM; first compound 0.03 µM; stronger effect = lower value
quantity-kind: viability, T/C (%)
Write it as a number; the unit % goes unstated.

Please review the following examples before continuing.
# molecule, study-target, viability, T/C, %
records = [
    ("CCc1c2c(nc3ccc(O)cc13)-c1cc3c(c(=O)n1C2)COC(=O)[C@]3(O)CC + CCn1c(-c2cc(N3CCN(C)CC3)cnc2C(C)OC)c2c3cc(ccc31)-c1csc(n1)CC(NC(=O)C1CC1C)C(=O)N1CCCC(N1)C(=O)OCC(C)(C)C2", "362531-283-R-J2-PDC complex spheroid viability", 33.8),
    ("CC1(C)CCC(Nc2ncc(C(F)(F)F)c(-c3c[nH]c4c(P(C)(C)=O)c(C#N)ccc34)n2)CN1 (centres undefined) + CCn1c(-c2cccnc2C(C)OC)c2c3cc(ccc31)N1CCOC(CC(NC(=O)C(C(C)C)N(C)C(=O)C3(F)CCN(C(=O)C#CC(C)(C)N(C)C)CC3)C(=O)N3CCCC(N3)C(=O)OCC(C)(C)C2)C1", "362531-283-R-J2-PDC complex spheroid viability", 95.2),
    ("CC1(C)CCC(Nc2ncc(C(F)(F)F)c(-c3c[nH]c4c(P(C)(C)=O)c(C#N)ccc34)n2)CN1 (centres undefined) + CCn1c(-c2cc(N3CCN(C)CC3)cnc2C(C)OC)c2c3cc(ccc31)-c1csc(n1)CC(NC(=O)C1CC1C)C(=O)N1CCCC(N1)C(=O)OCC(C)(C)C2", "362531-283-R-J2-PDC complex spheroid viability", 82.2),
]

Pending molecule:
// CCc1c2c(nc3ccc(O)cc13)-c1cc3c(c(=O)n1C2)COC(=O)[C@]3(O)CC + CCn1c(-c2cccnc2C(C)OC)c2c3cc(ccc31)N1CCOC(CC(NC(=O)C(C(C)C)N(C)C(=O)C3(F)CCN(C(=O)C#CC(C)(C)N(C)C)CC3)C(=O)N3CCCC(N3)C(=O)OCC(C)(C)C2)C1 : viability, T/C value = 60.1

The reported numbers originate from PubChem BioAssay AID2060909.
